Molecular target: T1, human PILRA G78 on HEK293F cells (human, UniProt Q9UKJ1 20-303)
T1 construct: also called hA; G78 OE
T1 sequence (Q9UKJ1 20-303 R78G): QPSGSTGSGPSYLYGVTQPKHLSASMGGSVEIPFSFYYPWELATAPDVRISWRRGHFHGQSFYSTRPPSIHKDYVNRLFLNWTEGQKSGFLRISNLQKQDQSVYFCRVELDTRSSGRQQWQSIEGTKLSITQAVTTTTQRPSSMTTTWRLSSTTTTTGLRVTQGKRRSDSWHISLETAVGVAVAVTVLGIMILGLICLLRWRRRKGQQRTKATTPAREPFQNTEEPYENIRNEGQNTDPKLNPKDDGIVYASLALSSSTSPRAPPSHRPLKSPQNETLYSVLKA
Assay: hA Kd of Table 9; method not stated (Example 8: HEK293F overexpressing cells, FACS)
Catalogue of Kd values
Unit nM implied. Number only.

[[record]]
binder = "X14 (antibody, human IgG4, V domains shown, conditioned media in the HEK293F assays) VH: QVQLVQSGAEVKKPGSSVKVSCKASGYNFLHYDVNWVRQAPGQGLEWMGGIIPIFGTANYAQKFQGRVTITADESTSTAYMELSSLRSEDTAVYYCATAVGAGWFDTWGQGTLVTVSS VL: DIVMTQSPDSLAVSLGERATINCKSSQSVYFSPNNKNYLAWYQQKPGQPPKLLIYWASTRESGVPDRFSGSGSGTDFTLTISSLQAEDVAVYYCQQYFEEPYTFGQGTRLEIK"
reading = 0.1

[[record]]
binder = "X18 (antibody, human IgG4, V domains shown, conditioned media in the HEK293F assays) VH: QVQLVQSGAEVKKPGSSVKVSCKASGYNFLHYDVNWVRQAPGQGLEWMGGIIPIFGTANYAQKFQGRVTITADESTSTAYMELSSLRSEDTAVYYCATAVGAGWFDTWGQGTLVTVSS VL: DIVMTQSPDSLAVSLGERATINCKSSQSVWFDPNNKNYLAWYQQKPGQPPKLLIYWASTRESGVPDRFSGSGSGTDFTLTISSLQAEDVAVYYCQQYFEEPYTFGQGTRLEIK"
reading = 0.1


Reported Kd for X11 (antibody, human IgG4, V domains shown, conditioned media in the HEK293F assays) VH: QVQLVQSGAEVKKPGSSVKVSCKASGYNFLNYDVNWVRQAPGQGLEWMGGIIPIFGTANYAQKFQGRVTITADESTSTAYMELSSLRSEDTAVYYCATGVGAGWFDPWGQGTLVTVSS VL: DIVMTQSPDSLAVSLGERATINCKSSQSVYFSENNKNYLAWYQQKPGQPPKLLIYWASTRESGVPDRFSGSGSGTDFTLTISSLQAEDVAVYYCQQYYEEPYTFGQGTRLEIK was 1.6
